Assignment: determine reported ED50 for the given compounds.
Tested on: male mice (ICR)
Experiment: Muscle relaxation: endurance time on rotarod rotating at accelerated speed
Format: in vivo
Details: Mus musculus, ip; intraperitoneal, at time of maximum effect; 50% of activity vs vehicle only; read-out: MR test ED50, I = Acc. Rotarod
Hey, just the number and the unit after it is fine.

Challenge: Name the value of ED50 reported for C[C@@H](OC(N)=O)[C@@H](O)c1ccccc1Cl when tested on male mice (ICR).
Response given: 69.3 mg/kg

Challenge: Name the value of ED50 reported for CCCNC(=O)O[C@@H](C)[C@@H](O)c1ccccc1Cl when tested on male mice (ICR).
Response given: 48.7 mg/kg

Challenge: Name the value of ED50 reported for CNC(=O)O[C@@H](C)[C@@H](O)c1ccccc1Cl when tested on male mice (ICR).
Response given: 51.4 mg/kg

Challenge: Name the value of ED50 reported for CNC(=O)O[C@H](C)[C@H](O)c1ccccc1Cl when tested on male mice (ICR).
Response given: 25.7 mg/kg

Challenge: Name the value of ED50 reported for C[C@H](OC(=O)NC1CCCCC1)[C@@H](O)c1ccccc1Cl when tested on male mice (ICR).
Response given: 95.3 mg/kg

Challenge: Name the value of ED50 reported for C[C@@H](OC(=O)NC1CC1)[C@H](O)c1ccccc1Cl (single isomer, unassigned) when tested on male mice (ICR).
Response given: 30 mg/kg

Challenge: Name the value of ED50 reported for CC(C)NC(=O)O[C@H](C)[C@H](O)c1ccccc1Cl when tested on male mice (ICR).
Response given: 38.6 mg/kg

Could you now consider this next compound?
Challenge: Name the value of ED50 reported for CCC(OC(N)=O)C(O)c1ccccc1Cl (racemic) when tested on male mice (ICR).
Response given: 50.6 mg/kg

====

Tested on: male mice (ICR)
Experiment: Muscle relaxation: wire hang
Type: in vivo
Settings: Mus musculus; intraperitoneal, at time of maximum effect; 50% of activity vs vehicle only; read-out: MR test ED50, IV = Wire hang
MEASURE: ED50 (mg/kg)
Give bare numbers, in mg/kg.

Challenge: Name the value of ED50 reported for CC[C@H](OC(N)=O)[C@@H](O)c1ccccc1I [Compound 67] when tested on male mice (ICR).
Response given: 26.2

Give one value of ED50 per listed molecule.
1. C[C@@H](OC(N)=O)[C@H](O)c1ccccc1Cl [Compound 2]
2. C[C@H](OC(N)=O)[C@@H](O)c1ccccc1Cl [Compound 1]
3. C[C@@H](OC(N)=O)[C@H](O)c1ccccc1I [Compound 66]
4. C[C@H](OC(N)=O)[C@H](O)c1ccccc1Cl [Compound 5]

Response given:
43.3
13.3
76.3
52.5

====

Tested on: male mice (ICR)
Assay: Muscle relaxation: wire hang
Assay type: in vivo
Details: Mus musculus; intraperitoneal, at time of maximum effect; 50% of activity vs vehicle only; read-out: MR test ED50, IV = Wire hang
Assignment: determine reported ED50 for the given molecules.
Numbers only, in mg/kg.

Reference set (6 entries):
Challenge: # return recorded ED50 for entry CC(OC(=O)NC1CCCCC1)C(O)c1ccccc1Cl (racemic) [Compound 33]
Response given: 74.6

Challenge: # return recorded ED50 for entry CCCNC(=O)OC(C)C(O)c1ccccc1Cl (racemic) [Compound 30]
Response given: 31.7

Challenge: # return recorded ED50 for entry CNC(=O)O[C@H](C)[C@H](O)c1ccccc1Cl [Compound 22]
Response given: 22.4

Challenge: # return recorded ED50 for entry C[C@@H](OC(=O)NC1CCCCC1)[C@H](O)c1ccccc1Cl [Compound 26]
Response given: 63.8

Challenge: # return recorded ED50 for entry CC(C)NC(=O)O[C@@H](C)[C@@H](O)c1ccccc1Cl [Compound 17]
Response given: 41.4

Challenge: # return recorded ED50 for entry C[C@@H](OC(N)=O)[C@@H](O)c1ccccc1Cl [Compound 4]
Response given: 40

Give one value of ED50 per listed molecule.
1. CC(C)NC(=O)O[C@H](C)[C@H](O)c1ccccc1Cl [Compound 24]
2. CNC(=O)OC(C)C(O)c1ccccc1Cl (racemic) [Compound 29]
3. C[C@H](OC(=O)NC1CCCCC1)[C@@H](O)c1ccccc1Cl [Compound 19]

Response given:
17.8
38
28.5
